Subject of test: T1, human TIGIT-Fc (human, UniProt Q495A1 22-141, limits assumed)
T1 construct: not shown: Fc; not described
T1 sequence (looked up): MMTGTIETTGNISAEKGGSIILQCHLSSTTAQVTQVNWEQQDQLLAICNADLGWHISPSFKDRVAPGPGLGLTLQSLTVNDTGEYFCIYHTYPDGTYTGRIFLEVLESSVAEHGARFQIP
Test protocol: CD155 competition ELISA, single point; also: test concentration or dose not given here

[
  {
    "Binder": "TIGIT-SC1 (Fc fusion, VHH-Fc) VHH: EVQLVESGGGLVQPGGSLRLSCAASGFTLNDYAMGWFRQAPGKERELVAWIARYDGSTLYADSVKGRFTISADNSKNTAYLQMNSLKPEDTAVYYCARVDWALNAAPFDYWGQGTLVTVSS",
    "OD (450 nm), OD": 0.649
  },
  {
    "Binder": "TIGIT-SC181 (Fc fusion, VHH-Fc) VHH: EVQLVESGGGLVQPGGSLRLSCAASGFTLSSNWMGWFRQAPGKEREFVASVLRGGYTWYADSVKGRFTISADNSKNTAYLQMNSLKPEDTAVYYCARDAYYYGLWGQGTLVTVSS",
    "OD (450 nm), OD": 0.554
  },
  {
    "Binder": "TIGIT-SC17 (Fc fusion, VHH-Fc) VHH: EVQLVESGGGLVQPGGSLRLSCAASGFDFSVSWMGWFRQAPGKEREWVASVLRGGYTWYADSVKGRFTISADNSKNTAYLQMNSLKPEDTAVYYCAREGSWFDYWGQGTLVTVSS",
    "OD (450 nm), OD": 0.553
  },
  {
    "Binder": "TIGIT-SC42 (Fc fusion, VHH-Fc) VHH: EVQLVESGGGLVQPGGSLRLSCAASGNTFSGGFMGWFRQAPGKEREWVATVLRGGYTWYADSVKGRFTISADNSKNTAYLQMNSLKPEDTAVYYCASGGFLASWGQGTLVTVSS",
    "OD (450 nm), OD": 0.341
  }
]
